Each recorded value in this set is attributed to PubChem BioAssay (NCI).

Test system: RPMI-8226 leukemia
Assay: NCI-60 one-dose screen, 48 h (100 = growth as untreated, 0 = no growth, -100 = all killed)
Conditions: 10 µM unless noted
Description: Growth inhibition of the RPMI-8226 human tumor cell line is measured as a screen for anti-cancer activity. Cells are grown in 96 well plates and exposed to the test compound for 48 hours. Compounds are tested at a single concentration, which is 10^-5 M for most compounds. The reported endpoint is percent growth (GI% or GIPRCNT), where numbers from 0 - 100% represent growth inhibition, and numbers from -100% - 0 represent cell death. For example, a value of 40 represents 60% growth inhibition. […]
The panel holds about 83,000 compounds, 20% with a hit somewhere; the sample as a whole holds those more often.
Decide using growth: a value greater than or equal to 50% is 1.0, a smaller one is 0.0.

Use the examples below as a reference point.
molecule: COc1ccc(/C=C/C(=O)c2ccc(Oc3ncnc4ccccc34)cc2)cc1OC
system-under-test: RPMI-8226 leukemia
classification: 0.0

molecule: CCOC(=O)n1cnc2c(Cl)ncnc21
system-under-test: RPMI-8226 leukemia
classification: 1.0

Textbook exercise: given the entry COc1cc(/C=C2/Oc3cc4occc4c(OC)c3C2=O)ccc1OCC(=O)Nc1ccncc1 , state whether its growth is greater than or equal to 50%.
1.0

Subsequent entry: CCN(CC)CCNCC(O)Cc1ccc(OC)cc1 (centres undefined)
1.0

Subsequent entry: c1ccc(CNCCN(CCNCc2ccccn2)Cc2ccc3ccccc3c2)nc1
0.0
